# System under test: LXRβ (Homo sapiens, UniProt P55055)
# Construct: Co-transfection expression plasmids, comprising full-length LXRα (pCMX-h LXRα or LXRβ (pCMX-hLXRβ)); expressed in transfected cells; host or cells: CV-1 African green monkey kidney cells, transient transfection with pCMX-hLXRβ
# Sequence (P55055 whole entry): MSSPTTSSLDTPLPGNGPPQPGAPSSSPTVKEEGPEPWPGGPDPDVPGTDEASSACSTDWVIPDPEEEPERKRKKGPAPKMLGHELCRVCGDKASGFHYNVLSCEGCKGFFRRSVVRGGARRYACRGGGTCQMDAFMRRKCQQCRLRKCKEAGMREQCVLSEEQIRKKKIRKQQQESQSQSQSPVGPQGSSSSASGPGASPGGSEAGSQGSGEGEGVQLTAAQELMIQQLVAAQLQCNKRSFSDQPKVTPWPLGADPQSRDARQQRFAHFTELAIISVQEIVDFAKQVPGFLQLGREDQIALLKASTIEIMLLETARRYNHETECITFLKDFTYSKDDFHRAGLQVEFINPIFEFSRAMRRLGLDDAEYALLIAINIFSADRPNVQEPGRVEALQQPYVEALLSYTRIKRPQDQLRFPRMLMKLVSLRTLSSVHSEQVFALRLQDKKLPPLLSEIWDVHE
# Sequence (P19793 whole entry partner): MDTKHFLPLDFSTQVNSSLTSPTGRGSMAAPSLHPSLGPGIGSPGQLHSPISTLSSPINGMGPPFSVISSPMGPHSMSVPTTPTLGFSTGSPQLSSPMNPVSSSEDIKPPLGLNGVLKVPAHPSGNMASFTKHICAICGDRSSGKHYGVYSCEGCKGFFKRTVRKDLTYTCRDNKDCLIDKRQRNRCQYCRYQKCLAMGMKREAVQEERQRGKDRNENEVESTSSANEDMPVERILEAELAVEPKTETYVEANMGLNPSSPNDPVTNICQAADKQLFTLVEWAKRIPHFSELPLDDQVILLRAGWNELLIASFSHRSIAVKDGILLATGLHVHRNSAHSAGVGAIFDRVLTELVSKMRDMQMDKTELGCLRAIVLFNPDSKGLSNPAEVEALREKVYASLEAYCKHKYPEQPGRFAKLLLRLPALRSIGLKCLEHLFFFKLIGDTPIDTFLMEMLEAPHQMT
# Assay text: LXR/LXRE co-transfection assay (luciferase reporter) in CV-1 cells, LXRβ
# Assay type: cell-based
# Condition set: CV-1 cells, relative to maximum response of high control N-(3-((4-fluorophenyl)-(naphthalene-2-sulfonyl)amino)propyl)-2,2-dimethylpropionamide, read-out: LXRbeta % EFFICACY
Each entry below carries its reported Emax.
Property: Emax (%)

{"Molecule": "Cn1nc(C(F)(F)C(N)=O)cc1-c1ccc(-c2cccc(S(C)(=O)=O)c2)cc1-n1nncc1-c1ccc(Cl)cc1Cl [Example 32]", "Assay result": 43}
{"Molecule": "Cc1nc(-c2cc(-c3cccc(S(C)(=O)=O)c3)ccc2-n2ccc(C(F)(F)F)n2)c(-c2cc(F)c(OC(F)F)c(F)c2)o1 [Example 409]", "Assay result": 69}
{"Molecule": "Cc1nc(-c2ccc3c(c2)OC(F)(F)O3)c(-c2cc(-c3cc(F)c(CO)c(S(C)(=O)=O)c3)ccc2-c2cc(CC(C)(C)O)nn2C)o1 [Example 120]", "Assay result": 32}
{"Molecule": "Cc1nc(-c2cc(-c3cccc(S(C)(=O)=O)c3)ccc2-n2ccc(C(F)(F)F)n2)c(-c2ccc(OC(F)(F)F)cc2)o1 [Example 414]", "Assay result": 80}
{"Molecule": "CC(O)C(F)(F)c1cc(-c2ccc(-c3cccc(S(C)(=O)=O)c3)cc2-n2nncc2-c2ccc(OC(F)(F)F)cc2)n(C)n1 (stereo not drawn) [Example 1]", "Assay result": 68}
{"Molecule": "Cc1nc(-c2ccc(OC(F)(F)F)cc2)c(-c2cc(-c3ccc(CO)c(S(C)(=O)=O)c3)ccc2-n2nc(C(F)(F)F)cc2C)o1 [Example 333]", "Assay result": 69}
